- tested_target: Metabotropic glutamate receptor 8 (Rattus norvegicus) (UniProt P70579)
- Sequence (P70579 whole entry, looked up): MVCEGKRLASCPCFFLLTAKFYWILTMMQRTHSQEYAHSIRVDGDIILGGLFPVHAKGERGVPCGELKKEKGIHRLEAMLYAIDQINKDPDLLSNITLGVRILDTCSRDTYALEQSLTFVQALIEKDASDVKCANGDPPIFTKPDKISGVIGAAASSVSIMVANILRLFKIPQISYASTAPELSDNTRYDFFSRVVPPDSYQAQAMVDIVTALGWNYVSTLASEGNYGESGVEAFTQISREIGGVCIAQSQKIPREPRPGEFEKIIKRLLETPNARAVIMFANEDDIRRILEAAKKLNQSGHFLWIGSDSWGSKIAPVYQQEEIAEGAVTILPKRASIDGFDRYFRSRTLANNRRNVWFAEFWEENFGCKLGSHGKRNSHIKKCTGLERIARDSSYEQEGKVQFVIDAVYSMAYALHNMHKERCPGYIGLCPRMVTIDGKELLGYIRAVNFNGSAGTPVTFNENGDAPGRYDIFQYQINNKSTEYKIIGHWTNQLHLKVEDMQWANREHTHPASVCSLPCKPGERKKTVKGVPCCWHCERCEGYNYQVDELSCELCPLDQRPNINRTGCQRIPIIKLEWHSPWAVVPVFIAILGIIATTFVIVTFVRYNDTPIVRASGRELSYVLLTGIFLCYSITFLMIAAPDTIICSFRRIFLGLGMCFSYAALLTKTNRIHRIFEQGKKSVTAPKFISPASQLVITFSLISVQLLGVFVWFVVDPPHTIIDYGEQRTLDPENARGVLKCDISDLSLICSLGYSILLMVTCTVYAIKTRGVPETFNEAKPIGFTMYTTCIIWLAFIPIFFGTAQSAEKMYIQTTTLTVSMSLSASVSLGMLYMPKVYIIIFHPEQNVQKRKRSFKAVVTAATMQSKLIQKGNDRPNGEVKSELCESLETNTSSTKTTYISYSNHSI
- experiment: mGluR8 Gi/Go-coupled signaling modulation – cell-based, rat, thallium flux, HTS, primary screen (AID 488969)
- experimental_setup: HEK293 rat mGluR8, GIRK thallium flux, FluoZin2; at 10 µM; stronger effect = higher value; submaximal glutamate (EC20) added with thallium
Whole data set: some 110,000 compounds, median “z-score” near -0.1, cut for the highest 2% near 2. This excerpt belongs to a sample that is enriched for the highest values.
Lab note: compare z-score against -0.2. Equal or greater, write criterion met. Smaller, write criterion not met.

Check out these entries, answers already filled in.
Cc1ccc(-n2c(Cc3cccn3C)nnc2SCC(=O)N2CCN(c3ccccc3)CC2)cc1 :: criterion not met
CC1(C(=O)NC23CC4CC(CC(C4)C2)C3)CC1(Cl)Cl (stereo not drawn) :: criterion not met
Cc1ccc(C2CC(c3cccs3)n3nc(N)nc3N2)cc1 (stereo not drawn) :: criterion met
COc1ccc(C2CC(c3ccc(Br)cc3)Nc3nc(N)nn32)cc1 (stereo not drawn) :: criterion met

q: Check if z-score >= -0.2 (inclusive). Item: C/C(=N\NS(=O)(=O)c1ccc(C)cc1)c1ccc(Br)s1
a: criterion not met

q: Check if z-score >= -0.2 (inclusive). Item: COc1ccccc1N1C(=O)C2ON(c3ccccc3)C(c3ccc(N(C)C)cc3)C2C1=O (stereo not drawn)
a: criterion met

q: Check if z-score >= -0.2 (inclusive). Item: COc1ccc(C2CC(c3ccc(Cl)cc3)n3nc(N)nc3N2)cc1 (stereo not drawn)
a: criterion met

q: Check if z-score >= -0.2 (inclusive). Item: CCOc1ccc(N2C(=O)CC(N3CCc4ccccc43)C2=O)cc1 (stereo not drawn)
a: criterion met

q: Check if z-score >= -0.2 (inclusive). Item: Nc1nc2n(n1)C(c1ccco1)CC(c1ccccc1)N2 (stereo not drawn)
a: criterion met

====

- tested_target: Metabotropic glutamate receptor 8 (Rattus norvegicus)
- experiment: mGluR8 Gi/Go-coupled signaling modulation – cell-based, rat, thallium flux, HTS, primary screen (AID 488969)
- experimental_setup: HEK293 rat mGluR8, GIRK thallium flux, FluoZin2; at 10 µM; stronger effect = higher value; submaximal glutamate (EC20) added with thallium
Over roughly 110,000 compounds, “z-score” has its median near -0.1; the highest 2% begin near 2. For the sample, the highest values were picked, then their nearest neighbours and some compounds at random.
Measured z-score by item
# respond with the number and nothing more

Solved cases below.
O=C(NCCSc1c[nH]c2ccccc12)c1ccc(Br)o1 :: -0.00412
CCCOc1cccc(-c2cc(-c3n[nH]c(=S)n3CC)c3ccccc3n2)c1 :: 4.22
CCCCOC(=O)c1ccc(NC(=O)c2cc(Cl)ccc2OC)cc1 :: -0.0115
CCCCN(CCCC)S(=O)(=O)c1ccc2[nH]c(=O)[nH]c2c1 :: -0.144
CCn1ncc(Cl)c1C(=O)Nc1ccncc1 :: -0.171

q: // returns reported z-score for input COc1ccc(-c2cc(-n3c(C(F)(F)F)nc4ccccc43)n(CCC#N)n2)cc1
a: -0.215

q: // returns reported z-score for input O=C(CSc1ncnc2c1cnn2-c1ccc(Cl)cc1)NCc1ccc2c(c1)OCO2
a: 3.12

q: // returns reported z-score for input O=C(CSc1nc(C2CCCCC2)nc2ccccc12)NCc1ccc2c(c1)OCO2
a: -1.07

q: // returns reported z-score for input O=C(CSc1c[nH]c2ccccc12)NCc1ccc2c(c1)OCO2
a: 2.27

q: // returns reported z-score for input COc1cc(C)c(S(=O)(=O)N2CCOCC2)cc1C(C)C
a: 0.397

q: // returns reported z-score for input CC(C)(C)C1CC=C2C(C#N)=C(N)C(C#N)(C#N)C(c3cccs3)C2C1 (stereo not given)
a: 0.0392

q: // returns reported z-score for input CC(C)(C)c1ccc(C(=O)NCc2cccnc2)cc1
a: 0.116

====

Measured z-score by item
- tested_target: Metabotropic glutamate receptor 8 (Rattus norvegicus)
- experiment: mGluR8 Gi/Go-coupled signaling modulation – cell-based, rat, thallium flux, HTS, primary screen (AID 488969)
- experimental_setup: HEK293 rat mGluR8, GIRK thallium flux, FluoZin2; at 10 µM; stronger effect = higher value; submaximal glutamate (EC20) added with thallium
Over roughly 110,000 compounds, “z-score” has its median near -0.1; the highest 2% begin near 2. Only a selection was taken, and the highest values are over-represented in it overall.
# respond with the number and nothing more

q: // returns reported z-score for input C=CCn1c(NCCc2ccccc2)nc2c1c(=O)n(C)c(=O)n2C
a: 0.0292

q: // returns reported z-score for input CC(C)n1c(NCCc2ccccc2)nc2c1c(=O)n(C)c(=O)n2C
a: 2.39

q: // returns reported z-score for input Cc1ccc2nc(SC(C(=O)Nc3ccc(F)cc3)c3ccccc3)[nH]c2c1 (stereo not given)
a: -0.117

q: // returns reported z-score for input Cc1c(Nc2nc3ccccc3nc2NS(=O)(=O)c2ccccc2)c(=O)n(-c2ccccc2)n1C
a: -0.716

q: // returns reported z-score for input CC(C)(C)c1ccc(C(=O)NNC(=O)C(=O)N2CCCCC2)cc1
a: 0.478

q: // returns reported z-score for input COc1cccc(/C=N/NC(=O)c2nc(-c3ccccc3)cc(-c3ccccc3)n2)c1
a: -0.286

q: // returns reported z-score for input O=C(c1cccn(Cc2cccc(Cl)c2)c1=O)N1CCOCC1
a: 0.0735

q: // returns reported z-score for input CO/N=C/NC(=O)c1c(OC)ccnc1Oc1cccc(C(F)(F)F)c1
a: 0.0176

q: // returns reported z-score for input CCOC(=O)c1c(CN(CC)CC)oc2cc(Br)c(O)cc12
a: -1.27

q: // returns reported z-score for input Cc1cccc(C(=O)NNC(=O)c2ccccc2)c1
a: -0.0133

q: // returns reported z-score for input COc1ccc2nc(NC(=O)CSc3nnc(N)s3)sc2c1
a: 0.075

q: // returns reported z-score for input FC(F)Oc1ccc(NC(=S)NCc2ccccc2)cc1
a: 1.51

q: // returns reported z-score for input Cc1ccc(NC(=O)C(c2ccccc2)C2CCCC2)cc1 (stereo not given)
a: 3.36

q: // returns reported z-score for input Cc1nc2ncnn2c(C)c1CCC(=O)Nc1csc(N)n1
a: -0.0552

q: // returns reported z-score for input CC(C)(C)NC(=O)C(=O)NNC(=O)c1ccc(C(C)(C)C)cc1
a: 5.3

q: // returns reported z-score for input CCCNC(=S)Nc1ccc(Cl)cc1Cl
a: -0.0325

q: // returns reported z-score for input CC(=O)Nc1c(-c2ccc(F)cc2)nc2ccccn12
a: 2.25

q: // returns reported z-score for input CCCCNC(=O)/C=C/c1cccs1
a: -0.364

====

- tested_target: Metabotropic glutamate receptor 8 (Rattus norvegicus) (UniProt P70579)
- experiment: mGluR8 Gi/Go-coupled signaling modulation – cell-based, rat, thallium flux, HTS, primary screen (AID 488969)
- experimental_setup: HEK293 rat mGluR8, GIRK thallium flux, FluoZin2; at 10 µM; stronger effect = higher value; submaximal glutamate (EC20) added with thallium
Whole data set: some 110,000 compounds, median “z-score” near -0.1, cut for the highest 2% near 2. Only a selection was taken, and the highest values are over-represented in it overall.
parameter_measured: z-score
# respond with the number and nothing more

Solved cases below.
CC(OC(=O)C1=COCCO1)C(=O)Nc1ccc(Oc2ccccc2)cc1 (configuration not stated) :: 0.0205
Cc1cc(C)c2c(N=NN3CCCCC3)[nH]nc2n1 :: -0.0999

Please look at the following molecule next.
q: // returns reported z-score for input Cc1nc2ccccn2c1C(=O)NN=C1C2CC3CC(C2)CC1C3
a: -0.259

====

- tested_target: Metabotropic glutamate receptor 8 (Rattus norvegicus) (UniProt P70579)
- experiment: mGluR8 Gi/Go-coupled signaling modulation – cell-based, rat, thallium flux, HTS, primary screen (AID 488969)
- experimental_setup: HEK293 rat mGluR8, GIRK (G protein-gated inwardly rectifying potassium channel) thallium flux, FluoZin2; at 10 µM; stronger effect = higher value; submaximal glutamate (EC20) added with thallium
In all, about 110,000 compounds were measured (“z-score”: median about -0.1, highest 2% from about 2 on). For the sample, the highest values were picked, then their nearest neighbours and some compounds at random.
Lab note: compare z-score against 1. Equal or greater, write Y. Smaller, write N.

Check out these entries, answers already filled in.
COc1cc(/C=N/NC(=O)CC23CC4CC(CC(C4)C2)C3)cc(Br)c1OCC(=O)N(C)C :: N
CCOC(=O)C1C(=O)OC2(CCCCC2)C1C(=O)OCC (stereo not given) :: N
CCCCNC(=O)CSc1nc2ccccc2c(=O)n1Cc1ccc2c(c1)OCO2 :: N

q: Check if z-score >= 1 (inclusive). Item: COC(=O)c1cc(=O)n(CCc2ccc(OC)cc2)c(=Nc2ccc(F)c(Cl)c2)s1
a: Y

q: Check if z-score >= 1 (inclusive). Item: CC(C)C(C)(C#N)NC(=O)CSc1ncnc2sc(-c3ccccc3)cc12 (stereo not given)
a: Y

q: Check if z-score >= 1 (inclusive). Item: CCN(CC)C(=O)CSc1ncnc2sc(-c3ccccc3)cc12
a: Y

q: Check if z-score >= 1 (inclusive). Item: Cc1cc(C)c2oc(C(=O)Nc3nnc(C(C)C)s3)cc(=O)c2c1
a: N

q: Check if z-score >= 1 (inclusive). Item: FC(F)(F)c1cnc(NNC(=S)Nc2ccc(Cl)cc2)c(Cl)c1
a: Y

q: Check if z-score >= 1 (inclusive). Item: O=C(NC1CCCCC1)C(c1ccccc1)N(Cc1ccc2c(c1)OCO2)C(=O)c1cnsn1 (stereo not given)
a: Y

q: Check if z-score >= 1 (inclusive). Item: CC(C)c1ccc2occ(-c3nn[nH]n3)c(=O)c2c1
a: Y

q: Check if z-score >= 1 (inclusive). Item: COC(=O)c1cc(=O)n(CCc2ccccc2F)c(=Nc2ccc(F)c(Cl)c2)s1
a: N

q: Check if z-score >= 1 (inclusive). Item: Cc1c(Cl)cccc1NC(=S)NNc1ncc(C(F)(F)F)cc1Cl
a: N

q: Check if z-score >= 1 (inclusive). Item: CN(C)/C=N/c1c(C#N)cnn1-c1ncnc2sc(-c3ccccc3)cc12
a: N

The values you see were collected from PubChem BioAssay AID488969.
